# credit: paper PMC11355573

# System: H460 cells
# TEST: MTT cell viability assay (cytotoxicity)
# Assay type: cell-based, human
# CONDITION_CONTEXT: 24 h, read-out: IC50 ± SD H460

COMPOUND	ASSAY_SYSTEM	IC50
COc1c(C)cc2c(c1O)[C@@H]1CN(Cc3cccc4ccccc34)[C@@H](C#N)[C@H](C2)N1C [DH_28]	H460 cells	< 15 µM
